Please go through the items and note down their RP.
System: Rattus norvegicus
test-details: Relative potency compared substance P - change in blood pressure in anesthetized rat.
Assay type: functional
No unit in the answer, please; the number alone is enough.

Given the compound CSCC[C@H](NC(=O)[C@H](Cc1ccccc1)NC(=O)CNC(=O)[C@@H](C)NC(=O)[C@H](Cc1ccccc1)NC(=O)[C@H](CCC(N)=O)NC(=O)[C@H](CCC(N)=O)NC(=O)[C@@H]1CCCN1C(=O)[C@H](CCCCN)NC(=O)[C@@H]1CCCN1C(=O)[C@@H](N)CCCN=C(N)N)C(N)=O and test system Rattus norvegicus, the measured RP is 0.09

Given the compound CSCC[C@H](NC(=O)[C@H](CC(C)C)NC(=O)CNC(=O)[C@@H](Cc1c[nH]c2ccccc12)NC(=O)[C@H](Cc1ccccc1)NC(=O)[C@H](CCC(N)=O)NC(=O)[C@H](CCC(N)=O)NC(=O)[C@@H]1CCCN1C(=O)[C@H](CCCCN)NC(=O)[C@@H]1CCCN1C(=O)[C@@H](N)CCCN=C(N)N)C(N)=O and test system Rattus norvegicus, the measured RP is 0.8

Given the compound CSCC[C@H](NC(=O)[C@H](CC(C)C)NC(=O)[C@@H](CC(C)C)NC(=O)[C@H](Cc1ccccc1)NC(=O)[C@H](Cc1ccccc1)NC(=O)[C@H](CCC(N)=O)NC(=O)[C@H](CCC(N)=O)NC(=O)[C@@H]1CCCN1C(=O)[C@H](CCCCN)NC(=O)[C@@H]1CCCN1C(=O)[C@@H](N)CCCN=C(N)N)C(N)=O and test system Rattus norvegicus, the measured RP is 0.7

Given the compound CSCC[C@H](NC(=O)[C@H](CC(C)C)NC(=O)CNC(=O)[C@H](Cc1ccccc1)NC(=O)[C@@H](Cc1c[nH]c2ccccc12)NC(=O)[C@H](CCC(N)=O)NC(=O)[C@H](CCC(N)=O)NC(=O)[C@@H]1CCCN1C(=O)[C@H](CCCCN)NC(=O)[C@@H]1CCCN1C(=O)[C@@H](N)CCCN=C(N)N)C(N)=O and test system Rattus norvegicus, the measured RP is 0.2

Given the compound CSCC[C@H](NC(=O)[C@H](CC(C)C)NC(=O)CNC(=O)[C@H](CC1CCCCC1)NC(=O)[C@H](Cc1ccccc1)NC(=O)[C@H](CCC(N)=O)NC(=O)[C@H](CCC(N)=O)NC(=O)[C@@H]1CCCN1C(=O)[C@H](CCCCN)NC(=O)[C@@H]1CCCN1C(=O)[C@@H](N)CCCN=C(N)N)C(N)=O and test system Rattus norvegicus, the measured RP is 100

Given the compound CSCC[C@H](NC(=O)[C@H](CC(C)C)NC(=O)CNC(=O)[C@H](CC(C)C)NC(=O)[C@H](Cc1ccccc1)NC(=O)[C@H](CCC(N)=O)NC(=O)[C@H](CCC(N)=O)NC(=O)[C@@H]1CCCN1C(=O)[C@H](CCCCN)NC(=O)[C@@H]1CCCN1C(=O)[C@@H](N)CCCN=C(N)N)C(N)=O and test system Rattus norvegicus, the measured RP is 70

Given the compound CSCC[C@H](NC(=O)[C@H](CC(C)C)NC(=O)CNC(=O)[C@H](Cc1ccccc1)NC(=O)[C@H](Cc1c[nH]c2ccccc12)NC(=O)[C@H](CCC(N)=O)NC(=O)[C@H](CCC(N)=O)NC(=O)[C@@H]1CCCN1C(=O)[C@H](CCCCN)NC(=O)[C@@H]1CCCN1C(=O)[C@@H](N)CCCN=C(N)N)C(N)=O and test system Rattus norvegicus, the measured RP is 51

====

Species on record: Oryctolagus cuniculus
test-details: Intrinsic activity was measured on the rabbit mesenteric vein.
Assay type: functional
measure: Alphax10E
No unit in the answer, please; the number alone is enough.

Reported Alphax10E of CC[C@H](C)[C@H](NC(=O)[C@H](Cc1ccccc1)NC(=O)[C@H](CCC(N)=O)NC(=O)[C@H](CCC(N)=O)NC(=O)[C@@H]1CCCN1C(=O)[C@H](CCCCN)NC(=O)[C@@H]1CCCN1C(=O)[C@@H](N)CCCN=C(N)N)C(=O)NCC(=O)N[C@@H](CC(C)C)C(=O)N[C@@H](CCSC)C(N)=O : 1

Reported Alphax10E of CSCC[C@H](NC(=O)[C@H](CC(C)C)NC(=O)CNC(=O)[C@H](CC(C)C)NC(=O)[C@H](Cc1ccccc1)NC(=O)[C@H](CCC(N)=O)NC(=O)[C@H](CCC(N)=O)NC(=O)[C@@H]1CCCN1C(=O)[C@H](CCCCN)NC(=O)[C@@H]1CCCN1C(=O)[C@@H](N)CCCN=C(N)N)C(N)=O : 0.8

Reported Alphax10E of CSCC[C@H](NC(=O)[C@H](CC(C)C)NC(=O)CNC(=O)[C@H](CC1CCCCC1)NC(=O)[C@H](Cc1ccccc1)NC(=O)[C@H](CCC(N)=O)NC(=O)[C@H](CCC(N)=O)NC(=O)[C@@H]1CCCN1C(=O)[C@H](CCCCN)NC(=O)[C@@H]1CCCN1C(=O)[C@@H](N)CCCN=C(N)N)C(N)=O : 1

====

Please go through the items and note down their RP.
System: Rattus norvegicus
test-details: Relative potency compared substance P - change in blood pressure in anesthetized rat.
Format: functional

Reported RP of COc1ccc(C[C@H](NC(=O)[C@H](CCC(N)=O)NC(=O)[C@H](CCC(N)=O)NC(=O)[C@@H]2CCCN2C(=O)[C@H](CCCCN)NC(=O)[C@@H]2CCCN2C(=O)[C@@H](N)CCCN=C(N)N)C(=O)N[C@@H](Cc2ccccc2)C(=O)NCC(=O)N[C@@H](CC(C)C)C(=O)N[C@@H](CCSC)C(N)=O)cc1 : 31

Reported RP of COc1ccc(C[C@H](NC(=O)[C@H](Cc2ccccc2)NC(=O)[C@H](CCC(N)=O)NC(=O)[C@H](CCC(N)=O)NC(=O)[C@@H]2CCCN2C(=O)[C@H](CCCCN)NC(=O)[C@@H]2CCCN2C(=O)[C@@H](N)CCCN=C(N)N)C(=O)NCC(=O)N[C@@H](CC(C)C)C(=O)N[C@@H](CCSC)C(N)=O)cc1 : 100

Reported RP of CSCC[C@H](NC(=O)[C@H](CC(C)C)NC(=O)CNC(=O)[C@H](Cc1ccccc1)NC(=O)[C@H](CC1CCCCC1)NC(=O)[C@H](CCC(N)=O)NC(=O)[C@H](CCC(N)=O)NC(=O)[C@@H]1CCCN1C(=O)[C@H](CCCCN)NC(=O)[C@@H]1CCCN1C(=O)[C@@H](N)CCCN=C(N)N)C(N)=O : 21

Reported RP of CSCC[C@H](NC(=O)[C@H](CC(C)C)NC(=O)[C@@H](Cc1ccccc1)NC(=O)[C@@H](CC(C)C)NC(=O)[C@H](Cc1ccccc1)NC(=O)[C@H](CCC(N)=O)NC(=O)[C@H](CCC(N)=O)NC(=O)[C@@H]1CCCN1C(=O)[C@H](CCCCN)NC(=O)[C@@H]1CCCN1C(=O)[C@@H](N)CCCN=C(N)N)C(N)=O : 1.3

====

Test system: Rattus norvegicus
test-details: Relative potency compared substance P - change in blood pressure in anesthetized rat.
Format: functional
measure: RP
No unit in the answer, please; the number alone is enough.

Reported RP of CSCC[C@H](NC(=O)[C@H](CC(C)C)NC(=O)CNC(=O)[C@H](Cc1ccccc1)NC(=O)[C@H](CC(C)C)NC(=O)[C@H](CCC(N)=O)NC(=O)[C@H](CCC(N)=O)NC(=O)[C@@H]1CCCN1C(=O)[C@H](CCCCN)NC(=O)[C@@H]1CCCN1C(=O)[C@@H](N)CCCN=C(N)N)C(N)=O : 0.8

Reported RP of CC[C@H](C)[C@H](NC(=O)[C@H](Cc1ccccc1)NC(=O)[C@H](CCC(N)=O)NC(=O)[C@H](CCC(N)=O)NC(=O)[C@@H]1CCCN1C(=O)[C@H](CCCCN)NC(=O)[C@@H]1CCCN1C(=O)[C@@H](N)CCCN=C(N)N)C(=O)NCC(=O)N[C@@H](CC(C)C)C(=O)N[C@@H](CCSC)C(N)=O : 100

====

Species: Oryctolagus cuniculus
test-details: Intrinsic activity was measured on the rabbit mesenteric vein.
Format: functional
measure: Alphax10E
No unit in the answer, please; the number alone is enough.

Reported Alphax10E of CSCC[C@H](NC(=O)[C@H](CC(C)C)NC(=O)CNC(=O)[C@H](Cc1ccccc1)NC(=O)[C@H](CC1CCCCC1)NC(=O)[C@H](CCC(N)=O)NC(=O)[C@H](CCC(N)=O)NC(=O)[C@@H]1CCCN1C(=O)[C@H](CCCCN)NC(=O)[C@@H]1CCCN1C(=O)[C@@H](N)CCCN=C(N)N)C(N)=O : 0.8

Reported Alphax10E of COc1ccc(C[C@H](NC(=O)[C@H](CCC(N)=O)NC(=O)[C@H](CCC(N)=O)NC(=O)[C@@H]2CCCN2C(=O)[C@H](CCCCN)NC(=O)[C@@H]2CCCN2C(=O)[C@@H](N)CCCN=C(N)N)C(=O)N[C@@H](Cc2ccccc2)C(=O)NCC(=O)N[C@@H](CC(C)C)C(=O)N[C@@H](CCSC)C(N)=O)cc1 : 0.8

Reported Alphax10E of COc1ccc(C[C@H](NC(=O)[C@H](Cc2ccccc2)NC(=O)[C@H](CCC(N)=O)NC(=O)[C@H](CCC(N)=O)NC(=O)[C@@H]2CCCN2C(=O)[C@H](CCCCN)NC(=O)[C@@H]2CCCN2C(=O)[C@@H](N)CCCN=C(N)N)C(=O)NCC(=O)N[C@@H](CC(C)C)C(=O)N[C@@H](CCSC)C(N)=O)cc1 : 1
